Tested on: SK-MEL-28
Test: NCI 60 cell panel SRB screen
Format: cell-based
Conditions: Homo sapiens, SK-MEL-28, read-out: TGI
MEASURE: IC (TGI) (µM)
Give bare numbers, in µM.

These recorded examples may help you get a feel for the data.
COMPOUND: Cc1nnc(Nc2ccc(NC(=O)Nc3ccc(Cl)cc3)cc2)c2ccccc12 [Compound 6e]
SUBJECT OF TEST: SK-MEL-28
UOM: µM
ASSAY RESULT: 3.2
//
COMPOUND: Clc1ccc(Nc2nnc(CNc3ccccc3)c3ccccc23)cc1 [Compound 16a]
SUBJECT OF TEST: SK-MEL-28
UOM: µM
ASSAY RESULT: 10.5
//
COMPOUND: O=C(Nc1ccccc1)Nc1ccc(Oc2nnc(Cl)c3ccccc23)cc1 [Compound 13a]
SUBJECT OF TEST: SK-MEL-28
UOM: µM
ASSAY RESULT: 12.7

Need IC (TGI) for each of these compounds.
1. O=C(Nc1ccc(Cl)cc1)Nc1ccc(Nc2nncc3ccccc23)cc1 [Compound 6b]
2. O=C(Nc1ccc(Cl)cc1)Nc1ccc(Oc2nncc3ccccc23)cc1 [Compound 7b]
3. COc1cccc(NCc2nnc(Nc3ccc(Cl)cc3)c3ccccc23)c1 [Compound 16d]
4. Clc1ccc(Nc2nnc(COc3ccccc3)c3ccccc23)cc1 [Compound 17a]

Reply:
[12.8, 1.65, 6.17, 7.23]
